tested-system: Uracil-DNA glycosylase (Homo sapiens) (UniProt P13051);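 further: UNG excision on a quenched double-stranded DNA oligo probe, with APE1 added for strand incision and turnover, read as fluorescence at 594 nm as strands separate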
Sequence (P13051 whole entry): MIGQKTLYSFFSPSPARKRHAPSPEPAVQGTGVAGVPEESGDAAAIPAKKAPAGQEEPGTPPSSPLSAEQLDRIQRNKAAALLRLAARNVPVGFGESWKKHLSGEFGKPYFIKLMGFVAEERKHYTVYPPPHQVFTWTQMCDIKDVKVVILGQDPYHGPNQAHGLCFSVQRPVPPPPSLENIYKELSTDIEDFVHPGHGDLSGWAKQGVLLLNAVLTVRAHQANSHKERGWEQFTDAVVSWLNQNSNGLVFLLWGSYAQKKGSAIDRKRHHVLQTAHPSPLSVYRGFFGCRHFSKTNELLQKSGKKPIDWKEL
stated-conditions: Compound Concentration 1.0 uM, Hit No
observable: inhibition (%)
Please reply with the bare figure in % and do not write the unit itself.

Check out these entries, answers already filled in.
COc1cc(N[C@@H]2CCCC[C@]2(O)C(F)(F)F)ccc1F ... 0.673
N[C@@H]1CCCN(c2c(/C=C3\SC(=O)NC3=O)cccc2-c2ccccc2)C1 ... 7.16
CCc1cc(Nc2nccc(-c3c(-c4ccc(OC)c(C(=O)Nc5c(F)cccc5F)c4)nc4ccccn34)n2)c(OC)cc1N1CCC(N2CCN(S(C)(=O)=O)CC2)CC1 ... 0.56
O=C(NOC[C@H](O)CO)c1ccc(F)c(F)c1Nc1ccc(I)cc1F ... -1.39
CN1C(=O)c2sccc2N(C)c2nc(Nc3ccc(S(N)(=O)=O)cc3)ncc21 ... -4.58
CS(=O)(=O)N1CCCC(NC(=O)[C@H](CCC2CCCCC2)NC(=O)c2ccc(CNC(=O)c3cnc4ccccn34)cc2)C1 (stereo partly specified) ... 0.321
Cc1cnc(Nc2ccc(F)cc2Cl)nc1-c1c[nH]c(C(=O)N[C@H](CO)c2cccc(Cl)c2)c1 ... 2.73
Cn1cc(-c2[nH]c3cc(NC(=O)[C@H](N)C4CCCCC4)cc4c3c2C=NNC4=O)cn1 ... 0.598

The reported inhibition of the molecule "CCOC(=O)c1cc2cc(-c3cc(C(=O)NCc4ccc(C(=O)O)cc4)nn3C)ccc2[nH]1" was -2.54

The reported inhibition of the molecule "O=C(O)[C@H]1[C@H](Cn2nnc3ccccc3c2=O)CC[C@@H]1C(=O)c1ccc(OCCC2CCOCC2)cc1" was -2.04

The reported inhibition of the molecule "CCN(CC)CCCCNc1ncc2cc(-c3cc(OC)cc(OC)c3)c(NC(=O)NC(C)(C)C)nc2n1" was 4.12

The reported inhibition of the molecule "O=C(Nc1ccc(Oc2ccc(F)cc2)cc1)N1CCc2ncccc2[C@H]1c1ccc(F)cc1" was -3.31

The reported inhibition of the molecule "Cn1cc(C2=C(c3cn(C4CCN(Cc5ccccn5)CC4)c4ccccc34)C(=O)NC2=O)c2ccccc21" was -3.81

The reported inhibition of the molecule "CN1C(=O)[C@@H](N2CCc3cn(Cc4ccccc4)nc3C2=O)COc2ccccc21" was 2.22

The reported inhibition of the molecule "Cc1nc(-c2cn3c(n2)-c2ccc(-c4cnn(C(C)(C)C(N)=O)c4)cc2OCC3)n(C(C)C)n1" was 0.537

The reported inhibition of the molecule "Cc1nc(Cc2cccc(C(F)(F)F)c2)sc1-c1ccc(C(N)=O)nc1" was -0.747

The reported inhibition of the molecule "N#Cc1cnc(Nc2cc(NC[C@H]3CNCCO3)c(C(F)(F)F)cn2)cn1" was 6.29

The reported inhibition of the molecule "CN1CCN(c2ccc(OC(F)(F)F)c(Nc3ncc4c(n3)-c3c(c(C(N)=O)nn3CCO)CC4)c2)CC1" was 3.38

The reported inhibition of the molecule "COc1cccc(CNC(=O)c2nc3scc(COCc4ccc(C(=O)O)cc4)c3c(=O)[nH]2)c1" was -0.0979

The reported inhibition of the molecule "CCN1CCN(c2ccc(Nc3cc(N(C)C(=O)Nc4c(Cl)c(OC)cc(OC)c4Cl)ncn3)cc2)CC1" was 1.97

The reported inhibition of the molecule "Cn1cc(Cl)c2c(Oc3c(F)cc(Nc4cc(Cl)nc(N)n4)cc3F)ccnc21" was 2.73

The reported inhibition of the molecule "O=C(NOCC1CC1)c1ccc(F)c(F)c1Nc1ccc(I)cc1Cl" was -3

The reported inhibition of the molecule "CC(C)(C)c1cc(NC(=O)Nc2ccc(-c3cn4c(n3)sc3cc(OCCN5CCOCC5)ccc34)cc2)no1" was 1.47

The reported inhibition of the molecule "C[C@@H]1CCNC(=O)c2cc3ccc(C(=O)Nc4nc5ccccc5n4CCCN(C)C)cc3n21" was 1.38

The reported inhibition of the molecule "Cc1cc(C)c(-n2ccn3nc(-c4cccnc4)cc23)cc1NC(=O)c1cc(C#N)cc(S(F)(F)(F)(F)F)c1" was 1.49

The reported inhibition of the molecule "COc1cc(Nc2ncc3c(n2)-c2ccc(Cl)cc2C(c2c(F)cccc2OC)=NC3)ccc1C(=O)O" was -1.28

====

Recorded inhibition, one value per entry.
tested-system: N-glycosylase/DNA lyase (Homo sapiens);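 further: OGG1 cleavage of a quenched duplex DNA oligonucleotide, coupled to APE1 for strand incision, read as fluorescence at 594 nm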
stated-conditions: Compound Concentration 10.0 uM, Hit No
Please reply with the bare figure in % and do not write the unit itself.

Check out these entries, answers already filled in.
FC(F)(F)c1ccc(Nc2ncnc3cc(-c4ncccc4C(F)(F)F)ccc23)cc1 ... 5.12
Nc1nc(Nc2ccccc2)nc2c1ncn2[C@@H]1O[C@H](CO)[C@@H](O)[C@H]1O ... 6.96
Clc1ccc(-c2nc3sccn3c2/C=N/OCc2ccc(Cl)c(Cl)c2)cc1 ... 1.07
CCOC(=O)c1ccc(C#Cc2ccc3c(c2)C(C)(C)CCS3)nc1 ... 22.7
CCN(Cc1ccc(Cl)cc1)c1ncc(C(=O)NCCCN2CCCC2=O)c(NC2CCCC2)n1 ... -2.04
CCCCCN1C(=O)C2(COc3cc4c(cc32)OCO4)c2ccccc21 (stereo not given) ... 1.71
COc1cc(OC)c(NC(=O)Nc2cc(C)on2)cc1Cl ... -6.94
O=C1CC[C@@]2(O)[C@H]3Cc4ccc(O)c5c4[C@@]2(CCN3CC2CC2)[C@H]1O5 ... -3.73
COc1ccc(Cl)cc1[C@]1(F)C(=O)Nc2cc(C(F)(F)F)ccc21 ... 4.52
Cc1ccc(/C(=C\CN2CCCC2)c2ccccn2)cc1 ... -5.51

The reported inhibition value, N-glycosylase/DNA lyase (Homo sapiens), for "CNC(=O)c1cc(C(=O)N[C@H]2[C@@H]3COC[C@@H]32)cc2c1O[C@H](CF)[C@H]2c1ccccc1" reads 4.16

The reported inhibition value, N-glycosylase/DNA lyase (Homo sapiens), for "COc1c(C(=O)/C=C/c2ccccc2)c(O)c(OC)c2occc12" reads 0.34

The reported inhibition value, N-glycosylase/DNA lyase (Homo sapiens), for "CCN(CC)S(=O)(=O)Nc1cccc(-c2ccc3c(NC(=O)C4CC4)n[nH]c3c2)c1" reads -4.92

The reported inhibition value, N-glycosylase/DNA lyase (Homo sapiens), for OCCOCCN1CCN(C(c2ccccc2)c2ccc(Cl)cc2)CC1 (stereo not given) reads -2.03

The reported inhibition value, N-glycosylase/DNA lyase (Homo sapiens), for "CCCCCNC(=N)N/N=C/c1c[nH]c2ccc(OC)cc12" reads 2.43

====

tested-system: Adenine DNA glycosylase (Homo sapiens);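 further: human MUTYH activity read as 594 nm fluorescence from cleavage and release of a quenched DNA duplex, coupled with APE1 for strand incision, lower signal meaning inhibition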
stated-conditions: Compound Concentration 10.0 uM, Hit No
Where a SMILES comes first, the peptide text is derived from it.
Recorded inhibition, one value per entry.
Please reply with the bare figure in % and do not write the unit itself.

Check out these entries, answers already filled in.
N#Cc1cc(F)cc(-c2nc(-c3ccc(F)cn3)no2)c1 ... -0.521
CCCCN(Cc1ccccc1)C(=O)c1ccc(S(=O)(=O)Nc2ccccc2)cc1 ... 28.5
COc1cc2nc(N3CCN(C(=O)C4CCCO4)CC3)nc(N)c2cc1OC (configuration not stated) ... 19

The reported inhibition of the molecule CC[C@H](C)[C@H](NC(=O)[C@H](Cc1ccc(O)cc1)NC(=O)[C@@H](NC(=O)[C@H](CCCNC(=N)N)NC(=O)[C@@H](N)CC(=O)O)C(C)C)C(=O)N[C@@H](Cc1cnc[nH]1)C(=O)N[C@H](C)C(=O)O (HELM PEPTIDE1{D.R.V.Y.I.H.[dA]}$$$$V2.0) was -8.51

The reported inhibition of the molecule "COc1ccc2cc(S(=O)(=O)N[C@H](CC(=O)N[C@H](Cc3ccc(CN4[C@H](C)CCC[C@@H]4C)cc3)C(=O)N(C)C(C)C)c3ccc4c(c3)OCO4)ccc2c1" was -1.26

The reported inhibition of the molecule "CCn1c(=O)c(C)cn(Cc2nnc(-c3ccc(F)c(OC)c3F)s2)c1=O" was 5.03

The reported inhibition of the molecule "CO[C@H]1CC[C@@H](C(=O)c2ccc3nc4c(cc3c2)CCCO4)CC1" was -9.06

====

tested-system: Endonuclease 8-like 1 (Homo sapiens) (UniProt Q96FI4);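 further: fluorescence at 594 nm from quenched duplex DNA oligonucleotides released by NEIL1 cleavage and strand separation, reported as reduction of this enzyme activity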
Sequence (Q96FI4 whole entry): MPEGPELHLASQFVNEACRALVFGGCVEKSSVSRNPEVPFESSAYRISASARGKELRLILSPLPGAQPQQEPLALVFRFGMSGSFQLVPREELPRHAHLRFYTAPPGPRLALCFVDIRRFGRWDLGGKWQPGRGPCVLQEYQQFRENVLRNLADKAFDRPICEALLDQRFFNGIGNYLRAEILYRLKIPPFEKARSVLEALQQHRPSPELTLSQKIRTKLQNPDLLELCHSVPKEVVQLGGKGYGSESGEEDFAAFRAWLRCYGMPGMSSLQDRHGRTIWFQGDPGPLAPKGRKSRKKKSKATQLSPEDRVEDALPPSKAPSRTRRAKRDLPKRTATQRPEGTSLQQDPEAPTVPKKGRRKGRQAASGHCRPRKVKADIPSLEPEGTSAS
stated-conditions: Compound Concentration 10.0 uM, Hit No
Recorded inhibition, one value per entry.
Please reply with the bare figure in % and do not write the unit itself.

Check out these entries, answers already filled in.
FC(F)(F)Oc1ccc(-c2ccc3nnc(C(F)(F)F)n3c2)cc1 ... 0.158
CN[C@@H]1CCc2[nH]c3ccc(C(N)=O)cc3c2C1 ... 8.84
C/C(=N\NC(=O)[C@@H]1C(=O)NC[C@H]1c1ccccc1)c1cccc(Br)c1 ... -1.98

The reported inhibition of the molecule "O=C1N/C(=N/c2ccccc2F)S/C1=C\c1ccc(C(=O)O)cc1" was -0.204

The reported inhibition of the molecule "CN(Cc1cccc(F)c1CNc1cc(F)c(S(=O)(=O)Nc2cscn2)c(F)c1)C(C)(C)C" was 2.08

The reported inhibition of the molecule CC(C)CNc1nc(N2CCN(CC3CCCOC3)CC2)ncc1C(=O)NCc1ccccc1 (stereo not given) was 2.23

The reported inhibition of the molecule "CN(C)c1ncc2cc(-c3ccc(-c4ncccc4F)cc3Cl)c(=O)n(C[C@H]3OC[C@H](N)CO3)c2n1" was 2.65

The reported inhibition of the molecule "CN(C)C(=O)c1cc2cnc(Nc3ccc(N4CCNCC4)cn3)nc2n1C1CCCC1" was 3.31

The reported inhibition of the molecule "Cn1ncnc1COc1nn2c(-c3c(F)cccc3F)nnc2cc1C1CCC1" was 7.71

The reported inhibition of the molecule "O=C1c2ccc(Nc3ccc(F)cc3F)cc2CCc2ccc(OC[C@H](O)CO)cc21" was -0.672
